Collected pKd values appear next to each entry.
Target: T1, DLG3_1, Q92796
T1 sequence (Q92796 125-227, limits assumed, looked up): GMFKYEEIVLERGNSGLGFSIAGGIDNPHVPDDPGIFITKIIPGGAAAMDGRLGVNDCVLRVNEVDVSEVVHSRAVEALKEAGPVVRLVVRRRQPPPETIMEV
Experiment: holdup assay
Parameters: key: below the threshold = too weak to quantify, mostly under pKd 3.1 to 4
Conditions: plain residues with an end cap or a label only (N-terminal biotin on a linker: ahx)
MEASURED_ENDPOINT: pKd

* AKPQPVDSWV [ARVCF, O00192] | 4.09
* HSATSVHTSV [MTMR1, Q13613] | 3.9

Values were extracted from paper PMC9482650.
